The reported measurements were obtained from the supplement of paper PMC10065799.

Target: Fyn (UniProt P06241)
Sequence (P06241 whole entry, looked up): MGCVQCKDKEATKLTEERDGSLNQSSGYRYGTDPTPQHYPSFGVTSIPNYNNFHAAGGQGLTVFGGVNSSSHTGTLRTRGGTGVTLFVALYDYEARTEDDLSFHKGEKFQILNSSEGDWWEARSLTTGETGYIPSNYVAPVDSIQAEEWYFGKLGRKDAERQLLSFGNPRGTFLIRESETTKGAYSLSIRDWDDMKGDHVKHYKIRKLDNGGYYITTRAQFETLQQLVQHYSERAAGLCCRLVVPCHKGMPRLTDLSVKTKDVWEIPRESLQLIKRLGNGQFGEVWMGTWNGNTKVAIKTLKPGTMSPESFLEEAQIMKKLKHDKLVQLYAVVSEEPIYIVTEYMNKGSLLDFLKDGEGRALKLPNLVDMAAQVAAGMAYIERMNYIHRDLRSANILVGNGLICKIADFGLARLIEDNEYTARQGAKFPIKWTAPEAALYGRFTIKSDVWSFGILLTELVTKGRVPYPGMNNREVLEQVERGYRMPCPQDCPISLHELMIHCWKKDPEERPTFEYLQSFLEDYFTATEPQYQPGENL
Assay: phosphorylation enrichment, bacterial display (enrichment ratio); higher = better substrate or ligand; peptides without Tyr show the background;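 also: 11-residue human phosphosite peptides and single-mutation variants displayed on the E. coli surface, counted by deep sequencing, each peptide's frequency after selection divided by its frequency in the unselected input library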;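 also: frequency after pTyr selection over input frequency; kinase dosed for 20-30% of maximal phosphorylation in three min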

sequence code | test target | phosphorylation enrichment
FLQTDYTSQVS [FRMPD1_Y846] | Fyn (UniProt P06241) | 0.404
MSSHHCDYKKY [ZNF445_Y428_Y428C] | Fyn (UniProt P06241) | 0.472
GGPTYYIDTNA [ACTL6A_Y69] | Fyn (UniProt P06241) | 0.926
RYLTRYIYNRE [HLA-DQB1_Y62_V59L] | Fyn (UniProt P06241) | 1.11
CKLCQYYLDHL [ATRX_Y1849_Y1847C] | Fyn (UniProt P06241) | 0.515
EEGRVYVFHLS [ITGAE_Y549_R552H_YF] | Fyn (UniProt P06241) | 0.512
TPTYPYLLPKS [PLD2_Y580] | Fyn (UniProt P06241) | 0.452
APSEFYDGDHD [HDAC3_Y414_N411S] | Fyn (UniProt P06241) | 0.615
WKKKIYEESST [MOCS2_Y170_E168K] | Fyn (UniProt P06241) | 0.534
QNTGDYFDLFG [PTPN11_Y62_YF] | Fyn (UniProt P06241) | 1.26
GLDGSYLLRDS [SH2D1A_Y29] | Fyn (UniProt P06241) | 0.413
SLEKSYELLDG [ACTB_Y240_P243L] | Fyn (UniProt P06241) | 0.533
EVEPTYVVLFD [ERCC4_Y577_R576T_YF] | Fyn (UniProt P06241) | 6.46
HFEFKYVINAI [MAOA_Y268_C266F_YF] | Fyn (UniProt P06241) | 0.441
